Catalogue of IC50 values
assay text: Inhibition of calf brain tubulin polymerization after 20 mins by turbidimetric method
Design: species or system Bos taurus
Response body: numeric value in µM, unit text excluded.

// solved cases for IC50 follow
>  <compound>
C=C(c1cc(OC)c(OC)c(OC)c1)c1ccc2c(ccn2CC)c1

>  <measured>
6

$$$$
>  <compound>
COc1ccc(C(=O)c2cc(OC)c(OC)c(OC)c2)cc1O

>  <measured>
2.5

$$$$
>  <compound>
CCn1ccc2cc(C(=O)c3cc(OC)c(OC)c(OC)c3)ccc21

>  <measured>
5.7

$$$$
>  <compound>
COc1cc(C(=O)c2ccc3c(ccn3C)c2)cc(OC)c1OC

>  <measured>
7.9

$$$$

Noted for `COc1ccc(/C=C\c2cc(OC)c(OC)c(OC)c2)cc1O` : its IC50 reads 3

IC50 reading for COc1cc(C(O)c2ccc3c(ccn3C)c2)cc(OC)c1OC (stereo unspecified) : 18

Source: ChEMBL document CHEMBL1152517
